- System tested: Growth hormone secretagogue receptor type 1 (Homo sapiens, UniProt Q92847)
- Sequence (Q92847 whole entry): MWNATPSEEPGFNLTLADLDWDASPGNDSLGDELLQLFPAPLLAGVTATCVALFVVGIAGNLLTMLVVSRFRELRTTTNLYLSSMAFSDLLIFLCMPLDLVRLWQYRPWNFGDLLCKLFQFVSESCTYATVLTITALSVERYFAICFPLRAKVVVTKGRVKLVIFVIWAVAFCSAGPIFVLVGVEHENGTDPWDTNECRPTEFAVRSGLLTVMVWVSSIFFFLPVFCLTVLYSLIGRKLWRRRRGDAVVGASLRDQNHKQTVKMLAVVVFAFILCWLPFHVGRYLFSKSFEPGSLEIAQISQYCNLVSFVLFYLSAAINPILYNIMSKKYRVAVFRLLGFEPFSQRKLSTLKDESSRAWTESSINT
- Measurement description: Binding affinity to ghrelin receptor
Readout type: pKi
Answer as the number alone; pKi is minus log10 of concentration in mol/L.

Query: Please tell me the measured pKi for COCc1nnc(N2CC(Oc3ccc(F)cc3Cl)C2)n1-c1ccc(OC)nc1 ; system: Growth hormone secretagogue receptor type 1 (Homo sapiens, UniProt Q92847).
Response: 5.36

###

This section presents compounds with their documented pKi values.
- System tested: Oxytocin receptor (Homo sapiens, UniProt P30559)
- Sequence (P30559 whole entry): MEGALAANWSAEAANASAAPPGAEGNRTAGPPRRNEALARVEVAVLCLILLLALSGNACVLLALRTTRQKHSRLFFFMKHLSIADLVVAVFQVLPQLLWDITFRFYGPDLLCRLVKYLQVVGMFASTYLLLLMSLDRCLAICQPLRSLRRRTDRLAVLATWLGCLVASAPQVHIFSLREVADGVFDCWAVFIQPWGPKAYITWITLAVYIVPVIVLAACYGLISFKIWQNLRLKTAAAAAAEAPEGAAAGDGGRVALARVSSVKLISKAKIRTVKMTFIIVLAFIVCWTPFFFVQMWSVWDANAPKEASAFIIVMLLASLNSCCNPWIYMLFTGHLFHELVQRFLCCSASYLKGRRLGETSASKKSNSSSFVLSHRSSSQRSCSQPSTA
- Measurement description: Antagonist activity at human cloned oxytocin receptor by cell based beta lactamase assay
Answer as the number alone; pKi is minus log10 of concentration in mol/L.

smiles_repr=COCc1nnc(N2CC[C@@H](Oc3cc(F)cc(F)c3C)C2)n1-c1ccc(OC)nc1 system_tested="Oxytocin receptor (Homo sapiens, UniProt P30559)" recorded_result=8.24

Query: Quickly give me recorded pKi for COc1ccc(-n2c(C)nnc2N2CCC(Oc3cc(F)cc(F)c3C)CC2)cn1
Response: 9.40

Query: Quickly give me recorded pKi for COc1ccc(-n2c(C)nnc2N2CC[C@@H](Oc3ccccc3C)C2)cn1
Response: 7.44

Query: Quickly give me recorded pKi for COc1ccc(-n2c(C)nnc2N2CC[C@@H](Oc3ccccc3)C2)cn1
Response: 6.77

Query: Quickly give me recorded pKi for COc1ccc(-n2c(C)nnc2N2CC(Oc3ccc(F)cc3Cl)C2)cn1
Response: 7.55

Query: Quickly give me recorded pKi for COCc1nnc(N2CC[C@@H](Oc3ccc(F)cc3C)C2)n1-c1ccc(OC)nc1
Response: 7.75

Query: Quickly give me recorded pKi for COCc1nnc(N2CC[C@H](Oc3ccccc3C)C2)n1-c1ccc(OC)nc1
Response: 6.68

Query: Quickly give me recorded pKi for COCc1nnc(N2CC[C@@H](Oc3ccccc3C)C2)n1-c1ccc(OC)nc1
Response: 7.55

Query: Quickly give me recorded pKi for COCc1nnc(N2CC(Oc3ccc(F)cc3Cl)C2)n1-c1ccc(OC)nc1
Response: 8.02

Query: Quickly give me recorded pKi for COc1ccc(-n2c(C)nnc2N2CC(Oc3cc(F)ccc3C)C2)cn1
Response: 7.40

###

- System tested: Oxytocin receptor (Homo sapiens, UniProt P30559)
- Measurement description: Antagonist activity at human cloned oxytocin receptor by cell based beta lactamase assay
// returns FALSE unless Ki is strictly below 20 nM, in which case TRUE

# example entries with known answers
smiles_repr=COCc1nnc(N2CCC(Oc3ccccc3C)CC2)n1-c1ccc(OC)nc1 system_tested="Oxytocin receptor (Homo sapiens, UniProt P30559)" label=TRUE
smiles_repr=COc1ccc(-n2c(C)nnc2N2CCC(Oc3ccccc3C)CC2)cn1 system_tested="Oxytocin receptor (Homo sapiens, UniProt P30559)" label=TRUE
smiles_repr=COc1ccc(-n2c(C)nnc2N2CC(Oc3ccccc3)C2)cn1 system_tested="Oxytocin receptor (Homo sapiens, UniProt P30559)" label=FALSE

Query: For COc1ccc(-n2c(C)nnc2N2CC(Oc3ccc(F)cc3C)C2)cn1 , is the recorded Ki below the cut-off of 20 nM?
Response: TRUE

Query: For COc1ccc(-n2c(C)nnc2N2CC(Oc3ccccc3Cl)C2)cn1 , is the recorded Ki below the cut-off of 20 nM?
Response: FALSE

Query: For COCc1nnc(N2CC(Oc3ccccc3Cl)C2)n1-c1ccc(OC)nc1 , is the recorded Ki below the cut-off of 20 nM?
Response: FALSE
